Source: ChEMBL document CHEMBL4184100

Tgt: Mitogen-activated protein kinase kinase kinase 5 (Homo sapiens)
Sequence (Q99683 whole entry): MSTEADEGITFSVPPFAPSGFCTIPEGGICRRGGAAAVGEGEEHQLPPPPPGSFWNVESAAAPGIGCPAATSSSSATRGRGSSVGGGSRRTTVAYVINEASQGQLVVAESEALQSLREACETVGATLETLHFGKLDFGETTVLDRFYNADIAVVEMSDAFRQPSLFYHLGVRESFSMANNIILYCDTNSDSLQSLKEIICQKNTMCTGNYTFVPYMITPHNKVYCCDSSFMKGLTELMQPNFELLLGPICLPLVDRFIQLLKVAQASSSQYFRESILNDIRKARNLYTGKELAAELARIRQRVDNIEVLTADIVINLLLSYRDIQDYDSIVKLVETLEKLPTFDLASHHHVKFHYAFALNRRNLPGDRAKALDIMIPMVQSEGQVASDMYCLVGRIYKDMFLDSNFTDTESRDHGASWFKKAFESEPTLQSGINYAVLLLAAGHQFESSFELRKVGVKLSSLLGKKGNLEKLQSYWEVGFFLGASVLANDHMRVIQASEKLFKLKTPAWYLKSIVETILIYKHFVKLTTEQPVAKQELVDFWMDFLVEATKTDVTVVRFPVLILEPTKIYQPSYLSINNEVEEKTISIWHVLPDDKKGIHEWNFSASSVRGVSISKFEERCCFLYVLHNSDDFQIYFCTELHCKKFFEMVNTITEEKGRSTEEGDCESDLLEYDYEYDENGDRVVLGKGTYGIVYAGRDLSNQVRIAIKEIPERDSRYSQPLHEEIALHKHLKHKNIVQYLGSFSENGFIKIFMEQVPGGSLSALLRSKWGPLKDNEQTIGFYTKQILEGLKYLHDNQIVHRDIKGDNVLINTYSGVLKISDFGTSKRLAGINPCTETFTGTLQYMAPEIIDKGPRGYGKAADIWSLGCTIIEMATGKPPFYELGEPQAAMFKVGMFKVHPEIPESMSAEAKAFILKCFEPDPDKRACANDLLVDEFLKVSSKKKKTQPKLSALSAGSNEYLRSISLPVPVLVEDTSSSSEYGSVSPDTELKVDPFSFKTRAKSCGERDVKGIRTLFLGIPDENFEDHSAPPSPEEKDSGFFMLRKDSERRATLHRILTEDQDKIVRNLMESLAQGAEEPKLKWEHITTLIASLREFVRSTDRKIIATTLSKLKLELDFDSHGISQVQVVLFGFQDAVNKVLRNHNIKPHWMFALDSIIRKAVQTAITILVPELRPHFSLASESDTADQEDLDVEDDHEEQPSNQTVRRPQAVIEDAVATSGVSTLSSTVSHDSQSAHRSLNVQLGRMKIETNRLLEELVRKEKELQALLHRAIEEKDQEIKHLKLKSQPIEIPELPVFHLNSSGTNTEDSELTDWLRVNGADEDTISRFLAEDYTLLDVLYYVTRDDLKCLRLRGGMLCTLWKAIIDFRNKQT
Protocol description: Inhibition of stress-activated full length recombinant human N-terminal GST-tagged ASK1 expressed in baculovirus expression system using MKK6 as substrate pretreated for 10 mins followed by substrate addition by Alphascreen assay
pIC50: −log10 of the molar value.
Test readout: pIC50

Some compounds with recorded pIC50:
Input smiles	pIC50
Cn1cc(-c2ccc3nc(Nc4cccc(N(C(=O)C(C)(C)C)c5ccccc5)c4)ncc3c2)cn1	< 5.00
CC(=O)Nc1cccc(Nc2ncc3cc(-c4cnn(C)c4)ccc3n2)c1	< 5.00

Now, please, on to the next compound.
// lookup pIC50 for Nc1cccc(Nc2ncc3cc(-c4cccc(N)c4)ccc3n2)c1 < 5.00
